# test: Solubility in Simulated Gastric Fluid (SGF) at 37° C.
# Format: physicochemical
# settings: Simulated Gastric Fluid (SGF), pH 1.8, simulated gastric fluid, thermodynamic from solid, 30 min, calculated using free base content
# Procedure: To study if Form A and Form B would perform differently in stomach, the solubilities of Form A and Form B were measured in Simulated Gastric Fluid (SGF, see below for SGF preparation) at 37° C. […] The remaining solids after each time point were subject to XRPD analysis. […] Weigh appropriate amount of hydrochloride (HCl) and sodium chloride (NaCl) into a 1-L flask followed by addition of 1-L deionized water. The mixture was stirred until all solids are dissolved. […]
assay_endpoint: solubility at 30 min (µg/mL)

- CC(C)N(C[C@H]1O[C@@H](n2cnc3c(N)ncnc32)[C@H](O)[C@@H]1O)[C@H]1C[C@@H](CCc2nc3cc(C(C)(C)C)ccc3[nH]2)C1 [Form B, trihydrate]: 5400
